Target: Sphingosine 1-phosphate receptor 1 (Homo sapiens, UniProt P21453)
Sequence (P21453 whole entry): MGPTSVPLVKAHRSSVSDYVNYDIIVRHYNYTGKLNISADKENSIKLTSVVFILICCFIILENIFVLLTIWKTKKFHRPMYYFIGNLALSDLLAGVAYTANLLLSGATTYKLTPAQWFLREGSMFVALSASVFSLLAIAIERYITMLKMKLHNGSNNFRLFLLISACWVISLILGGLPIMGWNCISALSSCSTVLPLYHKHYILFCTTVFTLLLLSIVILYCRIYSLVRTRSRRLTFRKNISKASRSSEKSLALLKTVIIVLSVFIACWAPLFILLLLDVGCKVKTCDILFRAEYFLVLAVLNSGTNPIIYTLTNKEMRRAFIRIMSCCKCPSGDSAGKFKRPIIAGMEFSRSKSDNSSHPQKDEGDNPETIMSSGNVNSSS
Experiment: Agonist activity at human S1P1 receptor expressed in U20S cells coexpressing eGFP assessed as receptor internalization after 1 hr by microscopy analysis
READOUT_KIND: EC50 (µM)

Illustrative cases are given below, each with its answer.
CC1SCCN1C(=O)c1ccc2nc(-c3ccc(CN4CC(C(=O)O)C4)cc3F)sc2c1 (racemic) ... 0.042
CC(c1ccc2nc(-c3ccc(CN4CC(C(=O)O)C4)cc3F)sc2c1)c1ccccn1 (racemic) ... 0.57
O=C(O)C1CN(Cc2ccc(-c3nc4cc(Cc5ccccc5)ccc4s3)c(F)c2)C1 ... 0.041
O=C(O)C1CN(Cc2ccc(-c3nc4ccc(C(=O)N5CCSC5)cc4s3)c(F)c2)C1 ... 2.71

a. CC(C)C1SCCN1C(=O)c1ccc2nc(-c3ccc(CN4CC(C(=O)O)C4)cc3F)sc2c1 (racemic)
b. CC(c1ccc2sc(-c3ccc(CN4CC(C(=O)O)C4)cc3F)nc2c1)c1ccccn1 (racemic)
Query string: Between a and b , which one has the lower reported EC50 value? Reply briefly: the label of your chosen item.
Result string: a
(a: 0.049 µM, b: 2.37 µM)

1. CCC1SCCN1C(=O)c1ccc2nc(-c3ccc(CN4CC(C(=O)O)C4)cc3F)sc2c1 (stereo in doubt; (-)-11f)
2. CCC(c1ccc2nc(-c3ccc(CN4CC(C(=O)O)C4)cc3F)sc2c1)c1ccccn1 (single isomer, unassigned; (+))
Query string: // max by EC50 over [ 1 , 2 ] Reply briefly: the label of your chosen item.
Result string: 2

###

Molecular target: Sphingosine 1-phosphate receptor 1 (Homo sapiens, UniProt P21453)
Assay: Agonist activity at human S1P1 receptor expressed in U20S cells coexpressing eGFP assessed as receptor internalization after 1 hr by microscopy analysis
pEC50: −log10 of the molar value.
READOUT_KIND: pEC50

O=C(c1ccc2nc(-c3ccc(CN4CC(C(=O)O)C4)cc3F)sc2c1)c1ccccn1 ... 5.89
O=C(O)C1CN(Cc2ccc(-c3nc4ccc(C(=O)N5CCCCCC5)cc4s3)c(F)c2)C1 ... 5.57
CCC1SCCN1C(=O)c1ccc2nc(-c3ccc(CN4CC(C(=O)O)C4)cc3F)sc2c1 (single isomer, unassigned; (+)) ... 7.77
CC1(C)SCCN1C(=O)c1ccc2nc(-c3ccc(CN4CC(C(=O)O)C4)cc3F)sc2c1 ... 6.37

A. O=C(O)C1CN(Cc2ccc(-c3nc4cc(Cc5ccccn5)ccc4s3)c(F)c2)C1
B. O=C(O)C1CN(Cc2ccc(-c3nc4ccc(C5(c6ccccc6)CC5)nc4s3)c(F)c2)C1
C. O=C(O)C1CN(Cc2ccc(-c3nc4ccc(Cc5ccccn5)cc4s3)c(F)c2)C1
Query string: Order the 3 molecules from highest to lowest pEC50. Returns: the labels listed in the requested order.
Result string: B, A, C
(B: 8.70, A: 6.17, C: 5.71)

P. CCC(c1ccc2nc(-c3ccc(CN4CC(C(=O)O)C4)cc3F)sc2c1)c1ccccn1 (single isomer, unassigned)
Q. O=C(O)C1CN(Cc2ccc(-c3nc4ccc(C5(c6ccccn6)CC5)cc4s3)c(F)c2)C1
R. O=C(O)C1CN(Cc2ccc(-c3nc4ccc(C(=O)N5CCCCC5)cc4s3)c(F)c2)C1
Query string: Order the 3 molecules from highest to lowest pEC50. Returns: the labels listed in the requested order.
Result string: P, Q, R
